testTarget: active CDK2 (with T160 phosphorylated) (Homo sapiens (Human), UniProt P24941 1-298)
testName: SPR, ligand CDK2 (pT160), additive 200 nM Dinaciclib
Bridge positions count the residues as written; N and C are the ends.
valueKind: Kd (µM)
Express your answer in µM, writing the number without its unit.

Inquiry: Which Kd value belongs to Ac-DPAWWVCAIAAIECSDV-NH2 (bridge 7-14; not fully specified (bridges), Cluster C51) [FP19711] ?
Reply text: 2

Entry source: patent US20240376151A1
